assay: modulators of S6 phosphorylation in cells, primary screen, cell-based, A549, cytoblot, luminescence, serum-stimulated (AID 1158); conditions: A549 phospho-S6 cytoblot, 5 h, higher = more signal;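 note: serum-stimulated A549 lung adenocarcinoma cells; signal is phosphorylated S6 detected by cytoblot immunostaining with HRP secondary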
Below is a list of entries, each paired with its recorded z-score value.
quantityMeasured: z-score

molecule	recordedValue
C#CCCCON=C1C[C@@H](O)[C@@H](O)[C@@H]2[C@@H]3C(=O)N(C4CCCCC4)C(=O)[C@@H]3CC[C@@H]12	-0.25
C[C@H]1CC[C@H]2C(=O)N[C@H](Cc3ccccc3)C(=O)N2[C@@H]1c1ccccc1	-0.0623
CCOC(=O)[C@H](Cc1ccccc1)NC(=O)CCC1CC(OC(=O)NCCc2ccc(F)cc2)CC2(CCCC(COC(=O)NCCC(C)C)O2)O1 (some centres undefined)	0.429
CCOC(=O)[C@H](Cc1ccccc1)NC(=O)CCC1CC(OC(=O)NCc2cccc3ccccc23)CC2(CCCC(COC(=O)NCc3ccc4c(c3)OCO4)O2)O1 (some centres undefined)	0.184

====

tested on: Noggin (protein binding on small-molecule microarray); test: Noggin binders on small-molecule microarray, primary screen, biochemical, 635/667 nm fluorescence (AID 1095); settings: 635 nm fluorescence, higher = more signal;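 note: score merges 667 nm feature fluorescence with signal to noise over triplicate slides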
Classes based on composite z-score: class 0 (below 0.4), class 1 (0.4 to below 0.6), class 2 (0.6 or more)

compound	discreteLabel
CCOC(=O)[C@H](Cc1ccccc1)NC(=O)CCC1CC(OC(=O)NCc2cccc3ccccc23)CC2(CCCC(COC(=O)NCCc3ccc(Cl)cc3)O2)O1 (stereo not given in full)	class 1
C=CC[C@@H]1C=C[C@H](ON=C[C@@H](NS(=O)(=O)c2ccc(C)cc2)[C@H](C)C=CCC(=O)OC)[C@@H](CO)O1	class 2
COC(=O)[C@@H]1CC[C@H](C)[C@@H](c2ccc(C)cc2)N1C(=O)c1ccc(C=NOC[C@@H](O)[C@H]2O[C@@H]3OC(C)(C)O[C@@H]3[C@H]2O)cc1	class 0
O=C(NN=C1C[C@@H](O)[C@@H](O)[C@@H]2[C@@H]3C(=O)N(c4ccc(F)cc4F)C(=O)[C@@H]3CC[C@H]12)OCc1ccccc1	class 0
CC(CCC(=O)OC[C@H]1O[C@H](C#Cc2ccccc2)C=C[C@@H]1Oc1ccc(C)cc1)=NO[C@@H](C)c1cc(-c2c(C)cc(C)cc2C)no1	class 0
C=CC[C@@H]1C=C[C@H](Oc2ccc(C)cc2)[C@@H](COC(=O)NCc2cccc3ccccc23)O1	class 2
CC(CCN1CCc2nc(-c3ccccc3)c(-c3ccccc3)cc2C1)=NO[C@H](C)c1cn([C@H](CO)Cc2ccccc2)nn1	class 2
O=C1C[C@@H](O)[C@@H](O)[C@@H]2[C@@H]3C(=O)N(Cc4ccccc4)C(=O)[C@@H]3CC[C@H]12	class 1
C[C@@H]1CC[C@H]2C(=O)O[C@@H](COc3ccc(C(C)(C)C)cc3)CN2[C@H]1c1ccc(Br)cc1	class 0
CO[C@H]1COC(=O)CCC[C@H](C)[C@H](OC)COC(=O)CC=C[C@@H]1C	class 2
Cc1ccc(C(C)C)n1C(=O)OC(C)(C)C	class 1
O=C1[C@H]2[C@H]3[C@H](O)[C@H](O)CC(=NO[C@@H]4O[C@H](CO)[C@@H](O)[C@H](O)[C@H]4O)[C@H]3CC[C@H]2C(=O)N1C[C@@H]1CCCO1	class 0
CCc1cc2c(nc1CC)CCN(CCC(C)=NOCC[C@@H]1C=C[C@H](OC(C)=O)[C@@H](COC(C)=O)O1)C2	class 2
